Molecular target: Androgen Receptor (Homo sapiens, UniProt P10275+P40337, T878A)
Construct: Compounds have been evaluated in this assay in LNCaP and/or VCaP cells utilizing similar protocols; endogenous in cells; host or cells: LNCaP cells
Sequence (P10275 whole entry T878A): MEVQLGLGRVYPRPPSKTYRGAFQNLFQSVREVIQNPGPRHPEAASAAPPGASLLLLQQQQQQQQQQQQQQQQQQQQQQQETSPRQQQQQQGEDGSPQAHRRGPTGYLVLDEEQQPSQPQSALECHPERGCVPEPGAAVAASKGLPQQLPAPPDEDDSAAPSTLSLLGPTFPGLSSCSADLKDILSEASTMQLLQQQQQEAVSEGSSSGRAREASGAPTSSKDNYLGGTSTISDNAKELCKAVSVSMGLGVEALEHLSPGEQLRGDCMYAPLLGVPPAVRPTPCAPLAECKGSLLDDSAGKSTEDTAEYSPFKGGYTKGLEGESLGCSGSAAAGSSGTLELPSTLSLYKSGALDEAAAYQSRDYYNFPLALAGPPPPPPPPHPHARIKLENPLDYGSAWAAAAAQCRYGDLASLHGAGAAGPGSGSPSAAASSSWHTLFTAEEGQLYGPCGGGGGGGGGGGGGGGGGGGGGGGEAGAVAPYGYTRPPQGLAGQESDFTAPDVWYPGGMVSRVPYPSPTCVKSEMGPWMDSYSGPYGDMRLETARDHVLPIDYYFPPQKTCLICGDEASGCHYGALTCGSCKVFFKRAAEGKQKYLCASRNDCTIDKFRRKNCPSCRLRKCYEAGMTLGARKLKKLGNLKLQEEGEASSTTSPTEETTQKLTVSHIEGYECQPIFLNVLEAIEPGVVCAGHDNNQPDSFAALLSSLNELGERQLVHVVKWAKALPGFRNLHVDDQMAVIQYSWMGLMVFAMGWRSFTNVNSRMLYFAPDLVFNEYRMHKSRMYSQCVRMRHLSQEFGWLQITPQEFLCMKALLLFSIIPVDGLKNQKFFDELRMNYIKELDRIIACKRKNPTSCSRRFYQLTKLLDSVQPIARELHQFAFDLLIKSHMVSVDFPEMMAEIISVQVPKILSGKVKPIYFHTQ
Sequence (P40337 whole entry): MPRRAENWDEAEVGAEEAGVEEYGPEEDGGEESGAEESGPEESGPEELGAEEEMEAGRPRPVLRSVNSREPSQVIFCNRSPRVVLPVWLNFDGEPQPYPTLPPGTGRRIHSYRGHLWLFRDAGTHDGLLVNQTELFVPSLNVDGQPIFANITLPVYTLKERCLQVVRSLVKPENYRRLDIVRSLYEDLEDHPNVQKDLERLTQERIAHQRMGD
Sequence (Q15369 whole entry partner): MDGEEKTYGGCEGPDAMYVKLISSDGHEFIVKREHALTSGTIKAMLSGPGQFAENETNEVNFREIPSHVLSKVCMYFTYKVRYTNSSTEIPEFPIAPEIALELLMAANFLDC
Sequence (Q15370 whole entry partner): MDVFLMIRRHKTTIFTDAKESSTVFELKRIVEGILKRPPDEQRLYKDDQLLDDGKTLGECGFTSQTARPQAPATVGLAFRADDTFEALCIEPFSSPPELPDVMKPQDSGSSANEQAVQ
Assay: Androgen Receptor ELISA assay (PathScan AR ELISA) in LNCaP cells: AR degradation, Dmax and DC50
Type: cell-based
Settings: concentration that caused 50% Androgen Receptor degradation
Recorded DC50 values for a group of compounds are listed next.

Recorded DC50, per entry:
- Cc1ncsc1-c1ccc(CNC(=O)[C@@H]2C[C@@H](O)CN2C(=O)[C@H](C(C)C)N2Cc3ccccc3C2=O)c(OCCCOc2ccc(N3C(=S)N(c4ccc(C#N)c(C(F)(F)F)c4)C(=O)C3(C)C)cc2)c1: 51 to 500 nM
- Cc1ncsc1-c1ccc(CNC(=O)[C@@H]2C[C@@H](O)CN2C(=O)[C@H](C(C)C)N2Cc3ccccc3C2=O)c(OCCCOCCCOc2ccc(N3C(=S)N(c4ccc(C#N)c(C(F)(F)F)c4)C(=O)C3(C)C)cc2)c1: 51 to 500 nM
- Cc1ncsc1-c1ccc(CNC(=O)[C@@H]2C[C@@H](O)CN2C(=O)[C@H](C(C)C)N2Cc3cc(CCCOCCOc4ccc(N5C(=S)N(c6ccc(C#N)c(C(F)(F)F)c6)C(=O)C5(C)C)cc4)ccc3C2=O)cc1: 51 to 500 nM

Noted DC50 for Cc1ncsc1-c1ccc(CNC(=O)[C@@H]2C[C@@H](O)CN2C(=O)[C@@H](NC(=O)c2ccc(C3CCN(CCCOc4ccc(N5C(=S)N(c6ccc(C#N)c(C(F)(F)F)c6)C(=O)C5(C)C)cc4)CC3)cc2)C(C)(C)C)cc1 , tested on Androgen Receptor (Homo sapiens, UniProt P10275+P40337, T878A): > 501 nM

meta.source: patent US11427548B2
